Below: a set of entries, each annotated with reported EC50.
# Assayed System: Mtb Rv3802 (Mycobacterium tuberculosis, UniProt O53581)
# Sequence (O53581 whole entry): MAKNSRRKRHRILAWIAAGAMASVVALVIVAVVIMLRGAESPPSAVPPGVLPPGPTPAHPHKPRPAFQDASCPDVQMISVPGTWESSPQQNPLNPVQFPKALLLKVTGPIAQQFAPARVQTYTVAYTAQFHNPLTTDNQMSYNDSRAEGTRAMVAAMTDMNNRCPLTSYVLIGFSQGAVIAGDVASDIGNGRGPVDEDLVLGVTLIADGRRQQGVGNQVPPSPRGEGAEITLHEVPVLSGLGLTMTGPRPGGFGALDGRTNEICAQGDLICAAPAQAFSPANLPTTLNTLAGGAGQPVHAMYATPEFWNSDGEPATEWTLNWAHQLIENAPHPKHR
# Assay: biochemical
# Type: biochemical
# Measurement Parameters: 20 nM Rv3802, linear rates from 2 to 6 min, no preincubation
Express it in µM; write the number only.

CCCCCCCCCCCC(CC1OC(=O)C1CCCCCC)OC(=O)C(CC(C)C)NC=O (single isomer, unassigned; ent4) [ent4-THL]: 62.1
CCCCCCCCCCC[C@@H](C[C@@H]1OC(=O)[C@H]1CCCCCC)OC(=O)[C@@H](CC(C)C)NC=O [2′-epi-THL]: 0.0092
CCCCCCCCCCC[C@H](C[C@@H]1OC(=O)[C@H]1CCCCCC)OC(=O)[C@@H](CC(C)C)NC=O [2′,5-epi-THL]: 0.0287
CCCCCCCCCCCC(CC1OC(=O)C1CCCCCC)OC(=O)C(CC(C)C)NC=O (single isomer, unassigned; ent3) [ent3-THL]: 16.6
CCCCCCCCCCC[C@H](C[C@@H]1OC(=O)[C@H]1CCCCCC)OC(=O)[C@H](CC(C)C)NC=O [5-epi-THL]: 0.0126
CCCCCCCCCCC[C@H](C[C@H]1OC(=O)[C@@H]1CCCCCC)OC(=O)[C@H](CC(C)C)NC=O (single isomer, unassigned; ent2): 15.9

Sample CCCCCCCCCCCC(CC1OC(=O)C1CCCCCC)OC(=O)C(CC(C)C)NC=O (single isomer, unassigned; ent1) [ent1-THL] — what was its EC50?
15.9

---

# Assayed System: UniProt O53581
# Assay: biochemical
# Type: biochemical
Measurement Name: EC50 (nM)
Dear colleague, please return just the value in nM, with no unit written.

Which value of EC50 has been reported for CCCCCCCCCCC[C@@H](C[C@@H]1OC(=O)[C@H]1CCCCCC)OC(=O)[C@H](CC(C)C)NC=O [THL, Tetrahydrolipstatin] in the records?
16.2
